testMethodNotes: chemical genetic growth profiling, strain panel (AID 1159580);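 note: tested at 20 µM; growth read once vehicle control cultures reached saturation at 30 °C; 1 = growth at the plate median or of vehicle wells; lower values mean less growth of the strain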
testConditions: S. cerevisiae deletion strains, growth OD, locus YDL192W, strain arf1, stronger effect = lower value
Hit rate of the full screen: of about 5,500 compounds, about 2,000 (36%) were called active. About 18% were inconclusive and are not listed. Some of the results follow.
quantityName: normalized growth
One number for each entry.

Here's what some known entries look like.
CO/N=C(\C(=O)N[C@@H]1C(=O)N2C(C(=O)O)=C(CSc3nc(=O)c(O)nn3C)CS[C@H]12)c1csc(N)n1 = 0.984
Cc1cc(-c2ccccc2)nnc1NCCN1CCOCC1 = 0.974
COC(=O)C1=CCCN(C)C1 = 0.983
CO/N=C(\C(=O)N[C@@H]1C(=O)N2C(C(=O)O)=C(COC(C)=O)CS[C@H]12)c1csc(N)n1 = 0.982

Next, consider the following compound.
State the recorded normalized growth for this entry: NS(=O)(=O)c1cc2c(cc1Cl)NC(C(Cl)Cl)NS2(=O)=O (stereo not given)
1.02
